molecular target: Human GPR120 short form (Homo sapiens, UniProt Q5NUL3); construct: expressed in transfected cells; assay: Human GPR120 calcium flux assay, Procedure Calcium A (2500 cells/well); type: cell-based
pEC50: −log10 of the molar value.
Entry flag: 1 if pEC50 reaches 6; -1 if it does not.

                                  structure  cat
0  Cc1c(CCCC(=O)O)ccc(OCC2=C(c3ccc(Cl)cc3)CCC2)c1C   -1
1  Cc1c(CCC(=O)O)ccc(OCC2=C(c3ccc(S(C)(=O)=O)cc3)CCC2)c1C   -1
2  Cc1c(CCC(=O)O)ccc(OCC2=C(c3ccc(C(F)(F)F)cc3)CCC2)c1C    1

Hello, I need to know if `Cc1cc(CCC(=O)O)ccc1OCC1=C(c2ccc(Cl)c(F)c2)CCC1` has measured pEC50 not below 6. Thanks!
1

* * *

Molecular target: Human GPR120 short form (Homo sapiens)
Construct: expressed in transfected cells
Sequence (Q5NUL3 1-361): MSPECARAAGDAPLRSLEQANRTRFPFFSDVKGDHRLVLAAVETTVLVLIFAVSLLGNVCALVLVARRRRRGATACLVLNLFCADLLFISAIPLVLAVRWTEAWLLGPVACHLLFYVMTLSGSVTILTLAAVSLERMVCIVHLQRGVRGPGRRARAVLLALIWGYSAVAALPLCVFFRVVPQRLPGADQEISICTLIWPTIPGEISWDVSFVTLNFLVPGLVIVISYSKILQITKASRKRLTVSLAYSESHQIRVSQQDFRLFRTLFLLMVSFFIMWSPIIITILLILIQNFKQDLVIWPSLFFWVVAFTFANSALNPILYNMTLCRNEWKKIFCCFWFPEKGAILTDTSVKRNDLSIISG
Experiment: Human GPR120 calcium flux assay, Procedure Calcium B (4200 cells/well)
Format: cell-based
Overview of recorded EC50 for various compounds
Give just the numeric value; nM need not be written.

State its EC50 for this compound: `COc1cccc(C2=C(COc3ccc(CCC(=O)O)c(C)c3C)CCC2)c1`
256

* * *

Overview of recorded pEC50 for various compounds
molecular target: human GPR40 (Homo sapiens); assay: GPR40 calcium flux assay, human GPR40; details: HEK293 cells stably expressing GPR40; table does not say human or rat
Note on pEC50: it is the negative log10 of concentration, concentration in mol/L.

>>> df
                                   compound  result_value
0  O=C(O)CCc1ccc(OCC2=C(C3CCC3)CCC2)cc1Cl [Compound 400]          6.87
1  Cc1cc(OCC2=C(Cc3ccc(F)cc3)CCC2)c(F)cc1CCC(=O)O [Compound 350]          6.17
2  Cc1ccc(C2=C(COc3ccc(CCC(=O)O)c(C(F)(F)F)c3)CCC2)cc1 [Compound 307]          6.29
3  Cc1cc(OCC2=C(c3ccccc3Cl)CCC2)c(F)cc1CCC(=O)O [Compound 265]          5.94
4  Cc1ccccc1C1=C(COc2ccc(CCC(=O)O)c(C(F)(F)F)c2)CCC1 [Compound 257]          6.47
5  O=C(O)CCc1ccc(OCC2=C(C3CCCC3)CCC(F)(F)C2)cc1C(F)(F)F [Compound 606]          6.61
6  O=C(O)CCc1ccc(OCC2=C(C3CCCC3)CC(F)(F)C2)cc1C(F)(F)F [Compound 407]          7.52
7  CCCCC1=C(COc2ccc(CCC(=O)O)c(C(F)(F)F)c2)CCCC1 [Compound 598]          6.75

State its pEC50 for this compound: Cc1ccc(CC2=C(COc3ccc(CCC(=O)O)c(C(F)(F)F)c3)CCC2)cc1 [Compound 345]
7.17

State its pEC50 for this compound: O=C(O)CCc1ccc(OCC2=C(Cc3ccc(F)cc3)CCC2)cc1C(F)(F)F [Compound 353]
7.34

* * *

biological target: Human GPR120 short form (Homo sapiens); construct: expressed in transfected cells; experiment: Human GPR120 calcium flux assay, Procedure Calcium B (4200 cells/well); assay type: cell-based
readout-type: pEC50
Note on pEC50: it is the negative log10 of concentration, concentration in mol/L.

Here's what some known entries look like.
>>> df
                                  structure  result_value
0  Cc1c(CCC(=O)O)ccc(OCC2=C(c3cncs3)CCC(F)(F)C2)c1C          6.41
1  Cc1c(CCC(=O)O)ccc(OCC2=C(c3nccs3)CCC2)c1C          6.72
2  Cc1c(CCC(=O)O)ccc(OCC2=C(c3ccccc3Br)CCC2)c1C          6.16
3  Cc1c(CCC(=O)O)ccc(OCC2=C(c3ccc(C#N)cc3)CCCC2)c1C          5.84

State its pEC50 for this molecule: `Cc1cc(OCC2=C(c3ccc(F)cc3)CCC2)c(F)cc1CCC(=O)O`
6.30

State its pEC50 for this molecule: `Cc1c(CCC(=O)O)ccc(OCC2=C(c3ccc(C#N)s3)CCC(F)(F)C2)c1C`
6.42

State its pEC50 for this molecule: `O=C(O)CCc1ccc(OCC2=C(c3ccc(F)cc3)CCC2)cc1C(F)(F)F`
6.41

State its pEC50 for this molecule: `Cc1c(CCC(=O)O)cc(F)c(OCC2=C(c3ccc(F)cc3)CCC2)c1C`
6.23

* * *

target: human GPR40 (Homo sapiens, UniProt O14842); assay: GPR40 calcium flux assay, human GPR40; details: HEK293 cells stably expressing GPR40; table does not say human or rat
Sequence (O14842 whole entry): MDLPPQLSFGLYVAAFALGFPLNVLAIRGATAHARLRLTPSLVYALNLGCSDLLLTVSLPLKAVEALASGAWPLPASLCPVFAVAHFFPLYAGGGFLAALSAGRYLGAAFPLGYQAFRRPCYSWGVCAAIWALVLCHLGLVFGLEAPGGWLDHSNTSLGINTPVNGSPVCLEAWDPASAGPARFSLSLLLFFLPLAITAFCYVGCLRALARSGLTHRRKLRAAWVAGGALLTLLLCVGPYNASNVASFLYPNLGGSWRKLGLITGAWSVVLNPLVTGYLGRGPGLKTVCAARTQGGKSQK
Overview of recorded EC50 for various compounds
Give just the numeric value; µM need not be written.

Here's what some known entries look like.
>>> print(df.to_string())
                                   compound  unit_spec  result_value
0  O=C(O)CCc1ccc(OCC2=C(C3CCOCC3)CCC2)cc1Cl         µM         0.171
1  Cc1cc(CCC(=O)O)ccc1OCC1=C(c2ccc(Cl)s2)CCC(F)(F)C1         µM          2.86
2  Cc1cc(OCC2=C(c3ccc(Br)cc3)CCC2)c(F)cc1CCC(=O)O         µM         0.661
3  O=C(O)CCc1ccc(OCC2=C(c3ccc(Br)cc3)CCC2)cc1Cl         µM         0.193
4  O=C(O)CCc1ccc(OCC2=C(c3ccc(Cl)cc3F)CCC2)cc1Cl         µM         0.286

State its EC50 for this compound: `O=C(O)CCc1ccc(OCC2=C(c3ccc(Br)cc3)CCC2)cc1C(F)(F)F`
0.604

State its EC50 for this compound: `Cc1ncc(C2=C(COc3ccc(CCC(=O)O)cc3C)CC(F)(F)C2)s1`
1.47

State its EC50 for this compound: `N#Cc1cc(OCC2=C(c3ccc(F)cc3)CC(F)(F)C2)ccc1CCC(=O)O`
1.2

State its EC50 for this compound: CC1CCC(COc2ccc(CCC(=O)O)c(Cl)c2)=C1c1ccc(Cl)cc1 (stereo not drawn)
0.205

State its EC50 for this compound: `O=C(O)CCc1ccc(OCC2=C(Cc3ccc(Cl)cc3)CCC2)cc1Cl`
0.068

State its EC50 for this compound: `O=C(O)CCc1ccc(OCC2=C(C3CCCC3)CCC(F)(F)C2)cc1Cl`
0.325

State its EC50 for this compound: `Cc1cc(OCC2=C(c3ccc(Cl)c(F)c3)CCC2)c(F)cc1CCC(=O)O`
0.471

State its EC50 for this compound: `Cc1cc(OCC2=C(c3ccc(F)cc3)CCC(F)(F)C2)ccc1CCC(=O)O`
3.75

State its EC50 for this compound: `O=C(O)CCc1ccc(OCC2=C(C3CC3)CCC2)cc1C(F)(F)F`
1.23

State its EC50 for this compound: `C=C(Br)c1cc(OCC2=C(C3CCCC3)CCC2)ccc1CCC(=O)O`
2.04

* * *

molecular target: human GPR40 (Homo sapiens, UniProt O14842); assay: GPR40 calcium flux assay, human GPR40; settings: HEK293 cells stably expressing GPR40; table does not say human or rat
Overview of recorded EC50 for various molecules
Give just the numeric value; nM need not be written.

Here's what some known entries look like.
                                   molecule  result_value
0  Cc1cc(OCC2=C(c3ccc(Cl)cc3)CCC(F)(F)C2)ccc1CCC(=O)O          3310
1  CC(C)CC1=C(COc2ccc(CCC(=O)O)c(C(F)(F)F)c2)CC(F)(F)C1           150
2  O=C(O)CCc1ccc(OCC2=C(C3CCCC3)CC(F)(F)C2)cc1Cl            25
3    CCCC1=C(COc2ccc(CCC(=O)O)c(Cl)c2)CCCC1           431
4  O=C(O)CCc1ccc(OCC2=C(Cc3ccc(Cl)cc3)CCC2)cc1C(F)(F)F            81
5  O=C(O)CCc1ccc(OCC2=C(C3C=CCC3)CCC2)cc1 (stereo not drawn)           170
6   CCc1cc(OCC2=C(C3CCCC3)CCC2)ccc1CCC(=O)O            61
7  Cc1cc(Cl)ccc1C1=C(COc2ccc(CCC(=O)O)c(C(F)(F)F)c2)CCC1            90
8  O=C(O)CCc1ccc(OCC2=C(C3CC4CCC3C4)CCCC2)cc1Cl (stereo not drawn)          1300

Now consider a different molecule.
Tell me its EC50 on human GPR40 (Homo sapiens, UniProt O14842): Cc1cc(OCC2=C(c3ccc(Cl)cc3)CCC2C)c(F)cc1CCC(=O)O (stereo not drawn)
1010

Cited source for all entries: patent US11230526B1
